Measured values drawn from patent US20260042764A1 for this set.

measuredTarget: Avi-KRAS WT (1-169) GppNHp/RAF1 RBD-3xFLAG (52-151) (Homo sapiens, UniProt P01116)
Construct: Avi-KRAS WT (1-169)
Sequence (P01116 1-169 isoform P01116-2): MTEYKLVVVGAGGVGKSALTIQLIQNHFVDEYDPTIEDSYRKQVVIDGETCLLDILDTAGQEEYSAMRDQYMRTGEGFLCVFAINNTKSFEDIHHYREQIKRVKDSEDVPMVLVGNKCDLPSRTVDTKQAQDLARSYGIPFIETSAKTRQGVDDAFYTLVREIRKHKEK
experimentalDetails: Raf1-KRAS WT-GppNHP disruption HTRF assay (Biological Example 1)
Type: binding
conditionContext: KRAS WT, GppNHp-loaded; class symbols
pIC50: −log10 of the molar value.
measure: pIC50

1. CCN(c1nc(OC[C@@]23CCCN2C[C@H](F)C3)nc2c(F)c(-c3ccc(F)c4sc(N)c(C#N)c34)c(C(F)(F)F)cc12)[C@H]1C[C@H]2CCN(C)C(=O)N2C1 (atropisomer, axis not shown) [Compound 666]
> 7.00
2. CN(c1nc(OC[C@@]23CCCN2C[C@H](F)C3)nc2c(F)c(-c3ccc(F)c4sc(N)c(C#N)c34)c(C(F)(F)F)cc12)[C@H]1CCN(C(=O)[C@@H]2CC2(F)F)C1 (atropisomer, axis not shown) [Compound 785]
6.00 to 7.00
3. CCN(c1nc(OC[C@@]23CCCN2C[C@H](F)C3)nc2c(F)c(-c3ccc(F)c4sc(N)c(C#N)c34)c(C(F)(F)F)cc12)[C@H]1CCN(C(=O)N2C[C@H]3C[C@@H]2CO3)C1 (atropisomer, axis not shown) [Compound 653]
> 7.00
4. CCN(c1nc(OC[C@@]23CCCN2C[C@H](F)C3)nc2c(F)c(-c3ccc(F)c4sc(N)c(C#N)c34)c(C(F)(F)F)cc12)[C@H]1CCN(C(=O)OC2COC2)[C@@H]1C (atropisomer, axis not shown) [Compound 809]
> 7.00
5. CC1c2cc(C(=O)N(C)C)nn2CCN1c1nc(OCC23CCCN2CC(F)C3)nc2c(F)c(-c3ccc(F)c4sc(N)c(C#N)c34)c(C(F)(F)F)cc12 (centres unmarked) [Compound 568]
5.00 to 6.00

Look at this compound and give its reported pIC50. N#Cc1c(N)sc2c(F)ccc(-c3c(C(F)(F)F)cc4c(N(C5CC5)[C@H]5CCN(C(=O)[C@@H]6CC6(F)F)C5)nc(OC[C@@]56CCCN5C[C@H](F)C6)nc4c3F)c12 (atropisomer, axis not shown) [Compound 779] 6.00 to 7.00

// lookup pIC50 for CC(=O)N1CC[C@H](N(CCF)c2nc(OC[C@@]34CCCN3C[C@H](F)C4)nc3c(F)c(-c4ccc(F)c5sc(N)c(C#N)c45)c(C(F)(F)F)cc23)C1 (atropisomer, axis not shown) [Compound 622] > 7.00

Look at this compound and give its reported pIC50. C[C@H](c1cccnc1N)N(C)c1nc(OC[C@@]23CCCN2C[C@H](F)C3)nc2c(F)c(-c3ccc(F)c4sc(N)c(C#N)c34)c(C(F)(F)F)cc12 (atropisomer, axis not shown) [Compound 600] > 7.00

Returns the measured pIC50 for the input compound. Input: [2H]C([2H])([2H])C([2H])(C(=O)N1CC[C@H](N(CC)c2nc(OC[C@@]34CCCN3C[C@H](F)C4)nc3c(F)c(-c4ccc(F)c5sc(N)c(C#N)c45)c(C(F)(F)F)cc23)C1)C([2H])([2H])[2H] (atropisomer, axis not shown) [Compound 707] > 7.00

Query (compound): CCN(c1nc(OC[C@@]23CCCN2C[C@H](F)C3)nc2c(F)c(-c3ccc(F)c4sc(N)c(C#N)c34)c(C(F)(F)F)cc12)[C@H]1CCN(C(=O)N2CC(F)C2)C1 (atropisomer, axis not shown) [Compound 606] ; field requested: pIC50 > 7.00

Entry CCN(c1nc(OC[C@@]23CCCN2C[C@H](F)C3)nc2c(F)c(-c3ccc(F)c4sc(N)c(C#N)c34)c(C(F)(F)F)cc12)[C@H]1CCN(C(=O)N2CCN(C(C)=O)CC2)C1 (atropisomer, axis not shown) [Compound 619] : reported pIC50 = ? > 7.00

Field request: pIC50 | item: Cc1c(C(=O)N(C)C)nn2c1CN(c1nc(OC[C@@]34CCCN3C[C@H](F)C4)nc3c(F)c(-c4ccc(F)c5sc(N)c(C#N)c45)c(C(F)(F)F)cc13)CC2 (atropisomer, axis not shown; (aS)) [Compound 590] > 7.00

Param item = CCN(c1nc(OC[C@@]23CCCN2C[C@H](F)C3)nc2c(F)c(-c3ccc(F)c4sc(N)c(C#N)c34)c(C(F)(F)F)cc12)[C@H]1C[C@@H](COC)N(C(=O)N(C)C)C1 (atropisomer, axis not shown) [Compound 713] ; retrieve measured pIC50. 6.00 to 7.00
